- system under test: TEAD1 (Homo sapiens (Human))
- assay: TR-FRET lipid pocket probe competition assay (Lipid HTRF), TEAD1
- Type: binding
- condition set: 4 hours pre-incubation; read-out: Lipid HTRF TEAD1 IC50
pIC50: −log10 of the molar value.
recorded metric: pIC50

Answered cases to consult:
- C=CC(=O)NCc1nn(-c2ccc(S(F)(F)(F)(F)F)cc2)c2cccc([C@@H](O)CO)c12 (single isomer, unassigned): 7.00
- O=C(C1=CCOC1)N1CC(c2nn(-c3ccc(OC(F)(F)F)cc3)c3nccc(CO)c23)C1: 6.66
- C=CC(=O)NCc1nn(-c2ccc(S(F)(F)(F)(F)F)cc2)c2cccnc12: 7.32

I = C=C(F)C(=O)NCc1nn(-c2ccc(OC(F)(F)F)cc2)c2nccc([C@H](O)CO)c12
II = C=CC(=O)NCc1nn(-c2ccc(OC(F)(F)F)cc2)c2nccc(-c3cnn(C4CC4)c3)c12
III = C=CC(=O)NCc1nn(-c2ccc(S(F)(F)(F)(F)F)cc2)c2nccc(CO)c12
Task field, ranking: reported pIC50, descending order. In your reply, arrange the labels in the requested order.
III, II, I

====

- system under test: TEAD1 (Homo sapiens (Human), UniProt P28347)
- Sequence (P28347 whole entry, species assumed): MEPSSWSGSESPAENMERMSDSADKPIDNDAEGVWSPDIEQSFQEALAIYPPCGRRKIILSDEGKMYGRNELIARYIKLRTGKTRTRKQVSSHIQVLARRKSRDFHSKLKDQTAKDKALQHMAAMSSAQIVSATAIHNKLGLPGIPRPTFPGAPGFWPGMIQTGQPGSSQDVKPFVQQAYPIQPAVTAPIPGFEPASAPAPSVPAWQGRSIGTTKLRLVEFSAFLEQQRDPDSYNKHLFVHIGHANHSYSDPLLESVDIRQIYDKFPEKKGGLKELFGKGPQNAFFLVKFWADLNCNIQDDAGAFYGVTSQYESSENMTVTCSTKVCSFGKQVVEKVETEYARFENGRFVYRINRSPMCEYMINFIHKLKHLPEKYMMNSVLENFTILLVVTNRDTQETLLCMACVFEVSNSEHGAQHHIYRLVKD
- assay: TR-FRET lipid pocket probe competition assay (Lipid HTRF), TEAD1;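 also: His-tagged TEAD1 with biotinylated probe, detected via Europium anti-His and XL665 streptavidin, probe displacement lowers TR-FRET signal, IC50 from four-parameter nonlinear fit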
- Format: binding
- condition set: 4 hours pre-incubation; read-out: Lipid HTRF TEAD1 IC50
recorded metric: IC50 (nM)

* C=CC(=O)NCc1nn(-c2ccc(OC(F)(F)F)cc2)c2nccc(N3CC(NC)C3)c12 | 190
* C=C(F)C(=O)N1CC(c2nn(-c3ccc(OC(F)(F)F)cc3)c3nccc(N4CC[C@@H](O)C4=O)c23)C1 | 800
* C=CC(=O)NCc1nn(-c2ccc(OC(F)(F)F)cc2)c2nccc([C@H](C)O)c12 | 135
* C=C(F)C(=O)N1CC(c2nn(-c3ccc(OC(F)(F)F)cc3)c3nccc([C@@H](O)CO)c23)C1 | 21.5
* C=CC(=O)NCc1nn(-c2ccc(OC(F)(F)F)cc2)c2nccc([C@H](O)COC(C)=O)c12 | 40
* C=CC(=O)NCc1nn(-c2ccc(OC(F)(F)F)cc2)c2nccc(N3CC(C)(O)C3)c12 | 32
* C=C(F)C(=O)N1CC(c2nn(-c3ccc(OC(F)(F)F)cc3)c3nccc(-n4ccnc4)c23)C1 | 23
* C=CC(=O)NCc1nn(-c2ccc(S(F)(F)(F)(F)F)cc2)c2nccc([C@H](O)CO)c12 (stereo in doubt) | 43

1 = C=CC(=O)NCc1nn(-c2ccc(OC(F)(F)F)cc2)c2nccc(-c3cnn(CC(N)=O)c3)c12
2 = C=C(F)C(=O)N1CC(c2nn(-c3ccc(OC(F)(F)F)cc3)c3nccc(-c4cnn(CC(N)=O)c4)c23)C1
Pick one: 1 or 2 . Which has the bigger IC50 number? Please reply using the label of the selected record.
1
(1: 120 nM, 2: 24 nM)

a = C=CC(=O)N(C)Cc1nn(-c2ccc(OC(F)(F)F)cc2)c2nccc([C@H](O)CO)c12
b = C=CC(=O)NCc1nn(-c2ccc(OC(F)(F)F)cc2)c2nccc(N3CC(C#N)C3)c12
c = C=C(F)C(=O)N1CC(c2nn(-c3ccc(OC(F)(F)F)cc3)c3nccc(-c4cnn(CCN(C)C)c4)c23)C1
d = O=C(NCc1nn(-c2ccc(OC(F)(F)F)cc2)c2nccc(CO)c12)C1=CCOC1
Descending sort on IC50 required. Write out the labels following the order that was asked for.
d, c, a, b
